target: Human cGAS amino acids 155-522 (Homo sapiens (Human)); assay: cGAS biochemical activity assay (ATP remaining, Kinase-Glo Max luminescence); conditions: human cGAS 155-522, ATP remaining (Kinase-Glo Max); read-out: cGAS IC50
Sequence (Q8N884 157-522): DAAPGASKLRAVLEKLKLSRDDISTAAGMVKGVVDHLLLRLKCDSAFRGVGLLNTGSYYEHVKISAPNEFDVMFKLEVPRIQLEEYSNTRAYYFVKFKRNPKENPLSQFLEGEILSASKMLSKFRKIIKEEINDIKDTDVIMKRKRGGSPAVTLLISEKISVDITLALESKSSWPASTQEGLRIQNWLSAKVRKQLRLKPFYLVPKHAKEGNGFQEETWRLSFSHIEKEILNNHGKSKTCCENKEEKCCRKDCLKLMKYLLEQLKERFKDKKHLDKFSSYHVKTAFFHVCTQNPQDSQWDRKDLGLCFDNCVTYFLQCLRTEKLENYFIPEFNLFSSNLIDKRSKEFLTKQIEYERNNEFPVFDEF
pIC50: −log10 of the molar value.
In this section we review reported pIC50 values for a set of compounds.

Illustrative cases are given below, each with its answer.
// query Name the recorded pIC50 for COc1cc(C(C)O)cc2oc(-c3c(C)[nH]c4c(-c5ccccc5)c(C#N)nn4c3=O)nc12 (stereo not shown) .
// result > 4.70

// query Which measured pIC50 value corresponds to COc1cccc2oc(-c3c(COC4CCNC4=O)[nH]c4c(-c5ccccc5)c(C(F)(F)F)nn4c3=O)nc12 (stereo not shown) ?
// result > 4.70

// query Could you share which pIC50 value was measured for `COc1cc(C(=N)N)cc2oc(-c3c(C)[nH]c4c(-c5ccccc5)c(C(F)(F)F)nn4c3=O)nc12` ?
// result > 4.70

// query Name the reported pIC50 value associated with the compound `COCc1[nH]c2c(-c3ccccc3)c(C(F)(F)F)nn2c(=O)c1-c1c(COC)[nH]c2c(-c3ccccc3)c(C(F)(F)F)nn2c1=O`
// result 3.60 to 4.70

// query # pIC50 lookup, item `Cc1[nH]c2c(-c3ccccc3)c(C(F)(F)F)nn2c(=O)c1C(=O)Nc1nccs1`
// result > 4.70

// query Data request, read-out pIC50, for Cc1[nH]c2c(-c3ccccc3)c(C(F)(F)F)nn2c(=O)c1-c1nnc(N2CCCC(O)C2)o1 (stereo not shown)
// result 3.60 to 4.70

Here is the next item to consider.
// query Fill in: pIC50 of `Cc1[nH]c2c(-c3ccccc3)c(C(F)(F)F)nn2c(=O)c1N1Cc2ccccc2C1=O` is ___
// result 3.60 to 4.70
